# assayed.system: ObgE (Escherichia coli, UniProt P42641, H234R)
# Construct: full-length ObgE, N-terminal His6 tag (pET28a-obgE), expressed in E. coli BL21(DE3) pLysS, Ni-NTA and size exclusion, made nucleotide-free by alkaline phosphatase
# Sequence (P42641 whole entry H234R): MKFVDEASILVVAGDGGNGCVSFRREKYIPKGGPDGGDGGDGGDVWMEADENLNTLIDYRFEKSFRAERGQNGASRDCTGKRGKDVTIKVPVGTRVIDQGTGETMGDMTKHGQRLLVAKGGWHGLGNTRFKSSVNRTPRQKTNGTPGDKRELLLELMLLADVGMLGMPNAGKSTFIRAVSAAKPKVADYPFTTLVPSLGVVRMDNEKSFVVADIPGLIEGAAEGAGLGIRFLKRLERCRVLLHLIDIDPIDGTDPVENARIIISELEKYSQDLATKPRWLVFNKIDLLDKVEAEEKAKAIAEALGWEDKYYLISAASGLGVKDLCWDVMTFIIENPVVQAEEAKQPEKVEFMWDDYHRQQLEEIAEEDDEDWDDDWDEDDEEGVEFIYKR
# test.protocol: isothermal titration calorimetry
# Type: binding
# condition.context: read-out: Equilibrium Dissociation Constants / KD(GDP)
recorded.metric: Kd (nM)
One number for each entry, in nM.

Give its Kd value. Item: Nc1nc2c(ncn2[C@@H]2O[C@H](COP(=O)(O)OP(=O)(O)O)[C@@H](O)[C@H]2O)c(=O)[nH]1 [GDP]
430

====

# assayed.system: ObgE (Escherichia coli, UniProt P42641, DEL153-156)
# Construct: full-length ObgE, N-terminal His6 tag (pET28a-obgE), expressed in E. coli BL21(DE3) pLysS, Ni-NTA and size exclusion, made nucleotide-free by alkaline phosphatase
# Sequence (P42641 with tags, fused parts or gaps DEL153-156): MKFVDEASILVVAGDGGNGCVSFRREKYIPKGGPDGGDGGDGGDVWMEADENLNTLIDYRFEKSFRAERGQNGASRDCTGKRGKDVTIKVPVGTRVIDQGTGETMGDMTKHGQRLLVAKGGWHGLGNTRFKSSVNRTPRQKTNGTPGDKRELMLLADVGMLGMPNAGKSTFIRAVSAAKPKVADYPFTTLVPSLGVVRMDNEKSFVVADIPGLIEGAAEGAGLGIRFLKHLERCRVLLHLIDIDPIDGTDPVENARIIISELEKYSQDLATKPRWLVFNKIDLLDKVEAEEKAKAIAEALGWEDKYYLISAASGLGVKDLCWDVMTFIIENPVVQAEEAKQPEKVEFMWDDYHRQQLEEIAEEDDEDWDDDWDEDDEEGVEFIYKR
# test.protocol: isothermal titration calorimetry
# Type: binding
# condition.context: read-out: Equilibrium Dissociation Constants / KD(ppGpp)
# Excerpt: isothermal titration calorimetry on ObgE
recorded.metric: Kd (nM)
Give bare numbers, in nM.

Kd for `Nc1nc2c(ncn2[C@@H]2O[C@H](COP(=O)(O)OP(=O)(O)O)[C@@H](OP(=O)(O)OP(=O)(O)O)[C@H]2O)c(=O)[nH]1` ?
640
